# measured-target: α1BAR-α2C(L^45.52) chimera (V197^45.52→L) (Homo sapiens, UniProt P35368, V197L)
# Sequence (P35368 35-520 V197L): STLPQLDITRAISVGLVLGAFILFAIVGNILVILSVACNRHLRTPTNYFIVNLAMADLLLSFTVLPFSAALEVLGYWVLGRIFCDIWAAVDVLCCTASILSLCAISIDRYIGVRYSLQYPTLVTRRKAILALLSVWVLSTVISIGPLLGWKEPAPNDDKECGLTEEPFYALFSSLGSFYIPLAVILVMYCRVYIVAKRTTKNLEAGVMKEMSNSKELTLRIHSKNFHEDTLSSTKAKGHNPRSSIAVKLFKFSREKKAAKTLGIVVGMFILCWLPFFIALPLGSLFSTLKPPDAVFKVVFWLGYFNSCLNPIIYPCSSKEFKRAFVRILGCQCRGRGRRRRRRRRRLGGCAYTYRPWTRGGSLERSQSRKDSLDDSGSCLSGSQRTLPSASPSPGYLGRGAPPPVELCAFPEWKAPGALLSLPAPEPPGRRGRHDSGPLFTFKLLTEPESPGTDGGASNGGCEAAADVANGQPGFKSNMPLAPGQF
# test-summary: HTRF ligand-binding assay on whole transfected HEK293T/17 cells (QAPB saturation; competition with QAPB tracer)
# test-conditions: pKi (competition binding), competition with 2 nM QAPB tracer, whole cells, mean
reported-property: Ki (nM)
Your answer is read as nM, so omit the unit and give the number.

Recorded Ki of COc1cc2nc(N3CCN(C(=O)c4ccco4)[C@H]4CCCC[C@H]43)nc(N)c2cc1OC (relative stereo) [cyclazosin] , please.
1.1

* * *

# measured-target: wild-type α2CAR (Homo sapiens, UniProt P18825)
# Sequence (P18825 37-462 limits assumed): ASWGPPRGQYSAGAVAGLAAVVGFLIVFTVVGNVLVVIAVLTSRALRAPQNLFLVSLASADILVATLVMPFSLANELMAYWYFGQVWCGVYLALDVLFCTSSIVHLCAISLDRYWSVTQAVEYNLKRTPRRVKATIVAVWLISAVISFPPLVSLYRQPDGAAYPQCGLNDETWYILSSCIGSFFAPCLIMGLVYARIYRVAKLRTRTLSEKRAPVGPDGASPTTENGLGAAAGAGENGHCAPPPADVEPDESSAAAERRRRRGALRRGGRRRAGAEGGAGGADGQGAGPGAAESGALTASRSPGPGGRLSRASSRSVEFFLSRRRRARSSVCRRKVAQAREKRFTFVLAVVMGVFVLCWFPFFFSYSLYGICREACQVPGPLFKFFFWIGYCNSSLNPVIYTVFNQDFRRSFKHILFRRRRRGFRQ
# test-summary: HTRF ligand-binding assay on whole transfected HEK293T/17 cells (QAPB saturation; competition with QAPB tracer)
# test-conditions: pKi (competition binding), competition with 50 nM QAPB tracer, whole cells, mean
reported-property: Ki (nM)
Number only, in nM; omit the unit.

Which Ki value belongs to COc1cc2nc(N3CCN(C(=O)c4ccco4)[C@H]4CCCC[C@H]43)nc(N)c2cc1OC (relative stereo) ?
339
